- Study target: LATS2 (Homo sapiens)
- Method description: RBC HotSpot kinase assay (33P-ATP, P81 filter-binding), LATS2
- Assay type: biochemical
- Reported conditions: Table 32, biochemical kinase assay; read-out: LATS2 IC50
Please respond with reported pIC50 for every item in the list.
Give bare numbers, as −log10 of the molar value.

>  <Molecule>
C[C@H](N)C(=O)NCC(O)(c1ccc(Cl)cc1)c1ccc(-c2ccnc3[nH]ccc23)cc1 (some centres unmarked)

>  <pIC50>
8.64

$$$$
>  <Molecule>
O=C(CO)NCC(O)(c1ccc(Cl)cc1)c1ccc(-c2ccnc3[nH]cc(Cl)c23)cc1 (centres unmarked)

>  <pIC50>
8.55

$$$$

Next, consider the following molecule.
Read the entry NCC(=O)NCC(O)(c1ccc(Cl)cc1)c1ccc(-c2ccnc3[nH]ccc23)cc1 (centres unmarked) and write its reported pIC50.
8.62

---

Please respond with reported pIC50 for every item in the list.
- Study target: LATS2 (Homo sapiens, UniProt Q9NRM7)
- Method description: RBC HotSpot kinase assay (33P-ATP, P81 filter-binding), LATS2
- Format: biochemical
- Reported conditions: Table 28, biochemical kinase assay; read-out: LATS2 IC50
Answers are plain numbers, as −log10 of the molar value.

Below are worked cases with known answers.
>  <Molecule>
Cc1cc(-c2ccnc3[nH]cc(F)c23)cc(F)c1C1(O)CC2(CNC2)C1 [Compound 108]

>  <Readout name>
pIC50

>  <Meas value>
7.61

$$$$
>  <Molecule>
C=C(C)c1cc(-c2ccnc3[nH]ccc23)ccc1CN [Compound 240]

>  <Readout name>
pIC50

>  <Meas value>
7.47

$$$$
>  <Molecule>
OC1(c2ccc(-c3ccnc4[nH]cc(F)c34)cc2)CNC1 [Compound 116]

>  <Readout name>
pIC50

>  <Meas value>
7.78

$$$$
>  <Molecule>
C[C@@H]1CN(C(=O)[C@@H]2COCCN2)C[C@H](C)C1(O)c1c(F)cc(-c2ccnc3[nH]cc(F)c23)cc1F (some centres unmarked) [Compound 81]

>  <Readout name>
pIC50

>  <Meas value>
7.65

$$$$
>  <Molecule>
Cc1cc(-c2ccnc3[nH]cc(F)c23)ccc1[C@@]1(O)[C@H](C)CN(C2CCOCC2)C[C@@H]1C [Compound 27]

>  <Readout name>
pIC50

>  <Meas value>
8.66

$$$$
>  <Molecule>
C[C@@H]1CNC[C@H](C)[C@@]1(O)c1ccc(-c2ccnc3[nH]cc(F)c23)cc1 [Compound 2]

>  <Readout name>
pIC50

>  <Meas value>
7.90

$$$$
>  <Molecule>
O=C1NCCc2cc(-c3ccnc4[nH]ccc34)ccc21 [Compound 260]

>  <Readout name>
pIC50

>  <Meas value>
7.28

$$$$
>  <Molecule>
OC1(c2ccc(-c3ccnc4[nH]ccc34)cc2)C[C@H]2CC[C@@H](C1)N2 (some centres unmarked) [Compound 115]

>  <Readout name>
pIC50

>  <Meas value>
8.00

$$$$

Report pIC50 for every entry below.
1. CC(C)(N)c1ccc(-c2ccnc3[nH]ccc23)cc1Cl [Compound 205]
2. C[C@@H]1CN(Cc2ccccc2)C[C@H](C)[C@@]1(O)c1c(F)cc(-c2ccnc3[nH]cc(F)c23)cc1F [Compound 93]

7.50
8.11

Your task in this section: give pIC50 for each listed record.
1. CN[C@H](C)C(=O)N1C[C@@H](C)[C@](O)(c2c(C)cc(-c3ccnc4[nH]cc(F)c34)cc2F)[C@@H](C)C1 [Compound 316]
2. C[C@@H]1CN(C)C[C@H](C)[C@@]1(O)c1ccc(-c2ccnc3[nH]cc(F)c23)cc1F [Compound 42]
3. Cc1cc(-c2ccnc3[nH]cc(F)c23)cc(F)c1[C@@]1(O)[C@H](C)CN(C)C[C@@H]1C [Compound 304]
4. C[C@@H]1CNC[C@H](C)[C@@]1(O)c1ccc(-c2ccnc3[nH]cc(F)c23)cc1Cl [Compound 1]

1: 8.17; 2: 8.17; 3: 8.40; 4: 7.84

---

- Study target: LATS1 (Homo sapiens, UniProt O95835)
- Sequence (O95835 1-1130): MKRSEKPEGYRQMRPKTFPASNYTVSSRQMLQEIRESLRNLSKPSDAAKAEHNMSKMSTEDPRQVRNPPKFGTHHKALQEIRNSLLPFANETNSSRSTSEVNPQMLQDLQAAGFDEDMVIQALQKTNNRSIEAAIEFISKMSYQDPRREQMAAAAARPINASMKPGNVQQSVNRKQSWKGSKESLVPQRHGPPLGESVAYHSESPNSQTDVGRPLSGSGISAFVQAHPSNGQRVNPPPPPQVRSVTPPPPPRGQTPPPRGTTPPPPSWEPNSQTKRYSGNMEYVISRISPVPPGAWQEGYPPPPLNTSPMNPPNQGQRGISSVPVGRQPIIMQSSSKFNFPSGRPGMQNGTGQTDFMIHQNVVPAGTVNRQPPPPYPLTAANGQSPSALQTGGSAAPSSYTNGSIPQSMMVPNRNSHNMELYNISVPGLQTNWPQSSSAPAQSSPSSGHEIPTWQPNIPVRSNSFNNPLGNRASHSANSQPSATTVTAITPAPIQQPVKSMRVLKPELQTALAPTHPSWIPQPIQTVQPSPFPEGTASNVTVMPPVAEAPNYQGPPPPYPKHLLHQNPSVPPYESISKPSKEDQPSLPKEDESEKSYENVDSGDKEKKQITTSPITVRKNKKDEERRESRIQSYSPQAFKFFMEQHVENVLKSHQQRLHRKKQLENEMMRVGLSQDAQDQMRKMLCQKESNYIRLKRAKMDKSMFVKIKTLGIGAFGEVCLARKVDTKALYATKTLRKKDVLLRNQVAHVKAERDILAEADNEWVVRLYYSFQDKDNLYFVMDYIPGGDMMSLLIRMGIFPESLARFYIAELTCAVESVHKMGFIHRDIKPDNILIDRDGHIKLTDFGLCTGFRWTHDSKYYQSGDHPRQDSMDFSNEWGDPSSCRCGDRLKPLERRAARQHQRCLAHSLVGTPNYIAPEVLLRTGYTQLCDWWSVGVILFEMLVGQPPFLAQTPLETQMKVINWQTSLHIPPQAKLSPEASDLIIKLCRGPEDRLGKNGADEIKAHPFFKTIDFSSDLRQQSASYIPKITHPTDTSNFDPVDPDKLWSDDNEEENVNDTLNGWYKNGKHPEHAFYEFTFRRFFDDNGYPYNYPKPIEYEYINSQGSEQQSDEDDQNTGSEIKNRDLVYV
- Method description: RBC HotSpot kinase assay (33P-ATP, P81 filter-binding), LATS1
- Type: biochemical
- Reported conditions: Table 28, biochemical kinase assay; read-out: LATS1 IC50
Kindly state log10(IC50) for each of the entries shown.
Units before log transform: nM; reported quantity: IC50; transform: log10.

# map each molecule to its log10(IC50)
1. COC(=O)c1c[nH]c2nccc(-c3ccc(CN)c(C)c3)c12
2. COC(=O)c1c[nH]c2nccc(-c3ccc(C4(O)CCNCC4)c(Cl)c3)c12
3. COc1cc(C2CCNCC2)ccc1-c1ccnc2[nH]ccc12
4. COC(=O)c1c[nH]c2nccc(-c3ccc(C4CCNCC4)c(-c4ccc(CN)cc4)c3)c12
5. NCc1ccc(-c2ccnc3[nH]cc(-c4cccnc4)c23)cc1
6. Cc1cc(-c2ccnc3[nH]cc(F)c23)cc(F)c1[C@@]1(O)[C@H](C)CN(C(=O)[C@@H]2COCCN2)C[C@@H]1C
7. NCc1ccc(-c2ccnc3[nH]cc(Cl)c23)cc1

1: 0.89; 2: 0.85; 3: 3.03; 4: 1.82; 5: 1.08; 6: 1.14; 7: 1.08

Look at each molecule and report its log10(IC50).
1. NCC(=O)N1CC2(C1)CC(O)(c1c(F)cc(-c3ccnc4[nH]cc(F)c34)cc1F)C2
2. Fc1c[nH]c2nccc(-c3ccc(C4(C(F)(F)F)CCNCC4)cc3Cl)c12
3. OC1(c2ccc(-c3ccnc4[nH]cc(F)c34)cc2)CC2(CNC2)C1

1.45
2.63
1.82

---

- Study target: UniProt Q9NRM7
- Sequence (Q9NRM7 1-1088): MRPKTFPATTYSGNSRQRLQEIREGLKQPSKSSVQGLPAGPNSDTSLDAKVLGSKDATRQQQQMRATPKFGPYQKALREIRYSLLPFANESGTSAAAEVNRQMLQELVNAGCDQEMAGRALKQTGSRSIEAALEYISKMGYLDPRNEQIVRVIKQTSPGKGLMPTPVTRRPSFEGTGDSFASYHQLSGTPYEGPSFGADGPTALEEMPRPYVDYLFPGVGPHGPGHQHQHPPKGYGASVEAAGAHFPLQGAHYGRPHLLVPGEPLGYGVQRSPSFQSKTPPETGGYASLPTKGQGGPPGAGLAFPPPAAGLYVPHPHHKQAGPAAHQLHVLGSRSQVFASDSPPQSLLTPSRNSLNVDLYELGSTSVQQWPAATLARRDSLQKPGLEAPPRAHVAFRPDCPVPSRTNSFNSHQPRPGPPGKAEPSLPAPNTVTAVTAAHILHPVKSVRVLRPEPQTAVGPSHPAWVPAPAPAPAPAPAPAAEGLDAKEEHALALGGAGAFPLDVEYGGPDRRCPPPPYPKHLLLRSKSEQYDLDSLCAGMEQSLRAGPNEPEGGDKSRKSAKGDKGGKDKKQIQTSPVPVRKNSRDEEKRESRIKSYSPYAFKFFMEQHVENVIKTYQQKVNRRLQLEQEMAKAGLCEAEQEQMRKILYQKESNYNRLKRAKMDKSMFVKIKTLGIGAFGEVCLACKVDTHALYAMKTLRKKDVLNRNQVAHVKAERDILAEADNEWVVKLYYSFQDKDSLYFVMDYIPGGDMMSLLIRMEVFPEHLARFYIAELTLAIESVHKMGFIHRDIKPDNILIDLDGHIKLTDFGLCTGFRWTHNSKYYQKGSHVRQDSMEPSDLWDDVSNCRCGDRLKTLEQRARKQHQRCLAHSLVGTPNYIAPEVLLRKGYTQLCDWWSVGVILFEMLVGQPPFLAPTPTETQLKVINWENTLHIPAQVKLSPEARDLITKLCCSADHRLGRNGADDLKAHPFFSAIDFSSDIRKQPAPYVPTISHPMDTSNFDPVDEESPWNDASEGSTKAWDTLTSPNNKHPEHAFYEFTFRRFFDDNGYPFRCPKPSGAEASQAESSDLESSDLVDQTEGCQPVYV
- Method description: RBC HotSpot kinase assay (33P-ATP, P81 filter-binding), LATS2
- Assay type: biochemical
- Reported conditions: biochemical kinase inhibition; read-out: LATS2 IC50
Readout name: IC50

>  <Mol>
CNCC(=O)N1C[C@@H](C)[C@](O)(c2c(C)cc(-c3ccnc4[nH]cc(C#N)c34)cc2F)[C@@H](C)C1

>  <Meas value>
2.9 nM

$$$$

For each listed entry, give its IC50.
1. Cc1cc(-c2ccnc3[nH]cc(C#N)c23)ccc1[C@@]1(O)[C@H](C)CN(C(=O)[C@H](N)CO)C[C@@H]1C
2. Cc1cc(-c2ccnc3[nH]cc(C#N)c23)cc(F)c1[C@@]1(O)[C@H](C)CN(C(=O)[C@@H](CO)N(C)C)C[C@@H]1C
3. Cc1cc(-c2ccnc3[nH]cc(C#N)c23)cc(F)c1[C@@]1(O)[C@H](C)CN(C(=O)[C@H](CO)N(C)C)C[C@@H]1C
4. Cc1cc(-c2ccnc3[nH]cc(C#N)c23)cc(F)c1[C@@]1(O)[C@H](C)CN(C2CCS(=O)(=O)CC2)C[C@@H]1C

["6.4 nM", "3.4 nM", "2.9 nM", "4.6 nM"]
